# Test system: Candida albicans MTU 12021
# protocol.notes: Agar dilution MIC, single and combined use
# Format: cell-based
# run.parameters: combined with Compound 1 at 100 μg/ml; Sabouraud agar, 37° C., 48 hours
The following compounds are shown together with reported Minimum Inhibitory Concentration (MIC) of the agent combined with Compound 1 values.
Field format: number, assumed µg/mL, no unit text.

O=C(CCCCCCCCC#CI)Oc1ccccc1    100

Fill in reported Minimum Inhibitory Concentration (MIC) of the agent combined with Compound 1 for this entry: Cc1cc(O)c2c(c1)O[C@@]1(C)CC[C@H]3C(C)(C)CCC[C@]34CO[C@@H]2[C@H]41
25

Item O=[N+]([O-])c1c(Cl)cccc1-c1c[nH]cc1Cl : provide Minimum Inhibitory Concentration (MIC) of the agent combined with Compound 1
50

Kindly indicate its recorded Minimum Inhibitory Concentration (MIC) of the agent combined with Compound 1. Item: Clc1ccccc1C(c1ccccc1)(c1ccccc1)n1ccnc1
3.13

Query Minimum Inhibitory Concentration (MIC) of the agent combined with Compound 1 for Clc1ccc(COC(Cn2ccnc2)c2ccc(Cl)cc2Cl)cc1 (stereo not drawn)
1.56

====

# Tested on: Candida albicans MTU 12021
# protocol.notes: Agar dilution MIC, single and combined use
# Type: cell-based
# run.parameters: combined with Compound 1 at 100 μg/ml; Sabouraud agar, 37° C., 48 hours
Reported values of Minimum Inhibitory Concentration (MIC) of the agent combined with Compound 1 for individual entries
Write the value in µg/mL as a bare number.

Here is how some compounds turned out for Minimum Inhibitory Concentration (MIC) of the agent combined with Compound 1.
C[C@@H]1[C@H](O)[C@@H](C)/C=C/C=C/C=C/C=C/C=C/C=C/C=C/[C@H](O[C@@H]2O[C@H](C)[C@@H](O)[C@H](N)[C@@H]2O)C[C@@H]2O[C@](O)(C[C@@H](O)C[C@@H](O)[C@H](O)CC[C@@H](O)C[C@@H](O)CC(=O)O[C@H]1C)C[C@H](O)[C@H]2C(=O)O [Amphotericin B]    3.13
Clc1ccc(C(Cn2ccnc2)OCc2c(Cl)cccc2Cl)c(Cl)c1 (stereo not drawn) [isoconazole]    1.56

# context switch: different compound, same Minimum Inhibitory Concentration (MIC) of the agent combined with Compound 1
For the compound Clc1ccc(COC(Cn2ccnc2)c2ccc(Cl)cc2Cl)c(Cl)c1 (stereo not drawn) [miconazole, reference compound] , give its reported Minimum Inhibitory Concentration (MIC) of the agent combined with Compound 1.
1.56
